meta.source: patent US20240132624A1

target: T1, human FcRn/b2M (human, UniProt P61769 21-119, biotinylated); experiment: SPR pH 6.0;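 note: surface plasmon resonance kinetics at 25 °C, diluted periplasmic extracts injected over immobilized ligand surfaces, 120 s association then 600–3600 s dissociation, running buffer containing 150 mM NaCl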
T1 construct: bought recombinant biotinylated protein (ACRO FCM-H82W4 or Immunitrack ITF01); also called hFcRn; hFcRn/hb2M
T1 sequence (chain, as listed by the source limits assumed, chain 1 of 2): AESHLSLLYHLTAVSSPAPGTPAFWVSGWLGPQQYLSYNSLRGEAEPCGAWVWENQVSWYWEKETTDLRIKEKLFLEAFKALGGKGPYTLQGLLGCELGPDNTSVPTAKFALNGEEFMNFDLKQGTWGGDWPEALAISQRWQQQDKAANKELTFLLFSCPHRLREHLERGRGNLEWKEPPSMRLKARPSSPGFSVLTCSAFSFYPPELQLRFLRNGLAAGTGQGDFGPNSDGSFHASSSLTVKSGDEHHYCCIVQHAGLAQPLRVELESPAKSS
T1 sequence (P61769 21-119 limits assumed, chain 2 of 2): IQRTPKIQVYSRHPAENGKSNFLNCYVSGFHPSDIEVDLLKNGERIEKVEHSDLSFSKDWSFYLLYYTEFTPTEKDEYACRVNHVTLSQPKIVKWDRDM
Let's look at some binders and their measured koff.
Give a bare numeral; the unit s⁻¹ is implied.

Example cases with answers are listed next.
{"columns": ["BINDER", "REPORTED_PROPERTY", "UNIT_SPEC", "OBSERVED_MEASUREMENT"],
 "data": [
  ["T0263018B11 G26S (VHH, name in Kabat numbering, FLAG3-His6 tagged) VHH: EVQLVESGGGVVQPGGSLRLSCAASSFTFSSYAMYWVRQAPGKGLEWVSAISSGGGSTDYADSVKGRFTISRDNSKNTLYLQMNSLRPEDTALYYCAADTLYTSLTWYSYWGQGTLVTVSS", "koff", "s⁻¹", 0.00091],
  ["T0263018B11 S30G (VHH, name in Kabat numbering, FLAG3-His6 tagged) VHH: EVQLVESGGGVVQPGGSLRLSCAASGFTFGSYAMYWVRQAPGKGLEWVSAISSGGGSTDYADSVKGRFTISRDNSKNTLYLQMNSLRPEDTALYYCAADTLYTSLTWYSYWGQGTLVTVSS", "koff", "s⁻¹", 0.00066],
  ["T0263018B11 W100cY (VHH, name in Kabat numbering, FLAG3-His6 tagged) VHH: EVQLVESGGGVVQPGGSLRLSCAASGFTFSSYAMYWVRQAPGKGLEWVSAISSGGGSTDYADSVKGRFTISRDNSKNTLYLQMNSLRPEDTALYYCAADTLYTSLTYYSYWGQGTLVTVSS", "koff", "s⁻¹", 0.0021]
]}

response.value for T0263018B11 S30M (VHH, name in Kabat numbering, FLAG3-His6 tagged) VHH: EVQLVESGGGVVQPGGSLRLSCAASGFTFMSYAMYWVRQAPGKGLEWVSAISSGGGSTDYADSVKGRFTISRDNSKNTLYLQMNSLRPEDTALYYCAADTLYTSLTWYSYWGQGTLVTVSS (field: koff) = 0.00074

response.value for T0263018B11 S100Q (VHH, name in Kabat numbering, FLAG3-His6 tagged) VHH: EVQLVESGGGVVQPGGSLRLSCAASGFTFSSYAMYWVRQAPGKGLEWVSAISSGGGSTDYADSVKGRFTISRDNSKNTLYLQMNSLRPEDTALYYCAADTLYTQLTWYSYWGQGTLVTVSS (field: koff) = 0.0019

response.value for T0263018B11 S56V (VHH, name in Kabat numbering, FLAG3-His6 tagged) VHH: EVQLVESGGGVVQPGGSLRLSCAASGFTFSSYAMYWVRQAPGKGLEWVSAISSGGGVTDYADSVKGRFTISRDNSKNTLYLQMNSLRPEDTALYYCAADTLYTSLTWYSYWGQGTLVTVSS (field: koff) = 0.0013

response.value for T0263018B11 S52D (VHH, name in Kabat numbering, FLAG3-His6 tagged) VHH: EVQLVESGGGVVQPGGSLRLSCAASGFTFSSYAMYWVRQAPGKGLEWVSAIDSGGGSTDYADSVKGRFTISRDNSKNTLYLQMNSLRPEDTALYYCAADTLYTSLTWYSYWGQGTLVTVSS (field: koff) = 0.0044

response.value for T0263018B11 T28I (VHH, name in Kabat numbering, FLAG3-His6 tagged) VHH: EVQLVESGGGVVQPGGSLRLSCAASGFIFSSYAMYWVRQAPGKGLEWVSAISSGGGSTDYADSVKGRFTISRDNSKNTLYLQMNSLRPEDTALYYCAADTLYTSLTWYSYWGQGTLVTVSS (field: koff) = 0.0011
